Exercise: state measured Ratio with respect to Non-Coating for each of the binders provided.
Target desc: T1, CRD1-2
T1 construct: also called fragmented human CD137-Fc fusion protein CRD1-2
T1 sequence (chain, as listed by the source limits assumed): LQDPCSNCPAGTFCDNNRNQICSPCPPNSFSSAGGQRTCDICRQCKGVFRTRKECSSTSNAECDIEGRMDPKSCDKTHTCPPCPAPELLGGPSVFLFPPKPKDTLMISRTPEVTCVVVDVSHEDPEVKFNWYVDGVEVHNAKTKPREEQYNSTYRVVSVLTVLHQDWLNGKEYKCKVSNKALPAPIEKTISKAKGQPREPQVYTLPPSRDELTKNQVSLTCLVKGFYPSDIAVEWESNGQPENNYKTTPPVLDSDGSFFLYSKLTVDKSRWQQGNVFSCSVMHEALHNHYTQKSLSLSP
Method description: ELISA, coated CD137-Fc protein 2 µg/mL, antibody 10 or 5 µg/mL; absorbance 620 nm divided by that of the uncoated well
One number for each entry.

{"columns": ["Binder", "Ratio with respect to Non-Coating"],
 "data": [
  ["R7 (antibody, V domains shown, Synthetic library clone; Fab on phage in the phage ELISA) VH: QVQLLESGGGLVQPGGSLRLSCAASGFTFSSYAMSWVRQAPGKGLEWVSAISGSGGSTYYADSVKGRFTISRDNSKNTLYLQMNSLRAEDTAVYYCARDRAMYHPSFNYWGQGTLVTVSS VL: DIQMTQSPSSLSASVGDRVTITCRASQSISSYLNWYQQKPGKAPKLLIYAASSLQSGVPSRFSGSGSGTDFTLTISSLQPEDFATYYCQQFNSYPLTFGGGTKVEIK", 1.8]
]}

Report Ratio with respect to Non-Coating for every entry below.
1. R2 (antibody, V domains shown, Naive library clone; Fab on phage in the phage ELISA) VH: EVQLQESGPGLVKPSETLSLTCTVSGGSISSSSYYWGWIRQPPGKGLEWIGSIHYTGSTYYNPSLKSRVTISVDTSKNQFSLKLSSVTAADTAVYYCARLNPSIAARPGAFDIWGQGTMVTVSS VL: QSVLTQPPSVSAAPGQKVTISCSGSSSNIANNFVSWFQQLPGTAPKLLIYDNNKRPSGIPDRFSGSKSGTSATLGITGLQTGDEADYYCGTWDRSLSAGVFGGGTKVTVL
2. R1 (antibody, V domains shown, Naive library clone; Fab on phage in the phage ELISA) VH: EVQLVQSGAEVKKPGASVKVSCKASGYTFTSYYTHWVRQAPGQGLEWMGIINPSGGSTSYAQKFQGRVTMTRDTSTSTVYMELSSLRSEDTAVYYCARGAPEYSSSSDYWGQGTMVTVSS VL: QSALTQPASVSGSPGQSITISCTGTSSDVGGYNYVSWYQQHPGKAPKLMIYDVSNRPSGVSNRFSGSKSGNTASLTISGLQAEDEADYYCSSYTSSSTRWVFGGGTKLTVL
3. R8 (antibody, V domains shown, Synthetic library clone; Fab on phage in the phage ELISA) VH: QVQLQESGPGLVKPSETLSLTCAVSGYSISSGYYWGWIRQPPGKGLEWIGSIYHSGSTYYNPSLKSRVTISVDTSKNQFSLKLSSVTAADTAVYYCARQHSFTRYYGYYYFDYWGQGTTVTVSS VL: DIQMTQSPSSLSASVGDRVTITCRASQSISSYLNWYQQKPGKAPKLLIYAASSLQSGVPSRFSGSGSGTDFTLTISSLQPEDFATYYCLQSDSIPLTFGGGTKVEIK

1. 1
2. 13.3
3. 0.5
